experimental.protocol: Unbound fraction in rhesus monkey plasma
Assay type: ADME, cell-free, Macaca mulatta

molecule.smiles | fraction unbound
C[C@H](Nc1nc(N)nc(N)c1Cl)c1nc2c(Cl)cc(F)cc2c(=O)n1-c1cc[nH]n1 | 0.0333

----------
experimental.protocol: Clearance in cynomolgus monkey plasma at 1 mg/kg, iv administered via infusion over 30 mins measured over 24 hrs by LC/MS/MS analysis
Assay type: ADME, organism-based, Macaca fascicularis

molecule.smiles | clearance, mL/min/kg
C[C@H](Nc1nc(N)nc(N)c1Cl)c1nc2c(Cl)cc(F)cc2c(=O)n1-c1cc[nH]n1 | 4

----------
experimental.protocol: Apparent terminal half life in Beagle dog plasma at 1 mg/kg, iv administered via infusion over 30 mins measured over 24 hrs by LC/MS/MS analysis
Type: ADME, organism-based, Canis lupus familiaris
condition.context: read-out: betat1/2(app) (converted)

molecule.smiles | unit.tag | half-life
C[C@H](Nc1nc(N)nc(N)c1Cl)c1nc2c(Cl)cc(F)cc2c(=O)n1-c1cc[nH]n1 | h | 3.91

----------
experimental.protocol: Volume of distribution at steady state in Beagle dog plasma at 1 mg/kg, iv administered via infusion over 30 mins measured over 24 hrs by LC/MS/MS analysis
Assay type: ADME, organism-based, Canis lupus familiaris
condition.context: read-out: Vdss

molecule.smiles | Vd
C[C@H](Nc1nc(N)nc(N)c1Cl)c1nc2c(Cl)cc(F)cc2c(=O)n1-c1cc[nH]n1 | 1.14 L/kg

----------
experimental.protocol: Oral bioavailability in cynomolgus monkey plasma at 5 mg/kg administered via gavage by LC/MS/MS analysis
Assay type: ADME, organism-based, Macaca fascicularis

molecule.smiles | bioavailability
C[C@H](Nc1nc(N)nc(N)c1Cl)c1nc2c(Cl)cc(F)cc2c(=O)n1-c1cc[nH]n1 | 68.6%

----------
system: Voltage-gated inwardly rectifying potassium channel KCNH2 (Homo sapiens, UniProt Q12809)
Sequence (Q12809 whole entry): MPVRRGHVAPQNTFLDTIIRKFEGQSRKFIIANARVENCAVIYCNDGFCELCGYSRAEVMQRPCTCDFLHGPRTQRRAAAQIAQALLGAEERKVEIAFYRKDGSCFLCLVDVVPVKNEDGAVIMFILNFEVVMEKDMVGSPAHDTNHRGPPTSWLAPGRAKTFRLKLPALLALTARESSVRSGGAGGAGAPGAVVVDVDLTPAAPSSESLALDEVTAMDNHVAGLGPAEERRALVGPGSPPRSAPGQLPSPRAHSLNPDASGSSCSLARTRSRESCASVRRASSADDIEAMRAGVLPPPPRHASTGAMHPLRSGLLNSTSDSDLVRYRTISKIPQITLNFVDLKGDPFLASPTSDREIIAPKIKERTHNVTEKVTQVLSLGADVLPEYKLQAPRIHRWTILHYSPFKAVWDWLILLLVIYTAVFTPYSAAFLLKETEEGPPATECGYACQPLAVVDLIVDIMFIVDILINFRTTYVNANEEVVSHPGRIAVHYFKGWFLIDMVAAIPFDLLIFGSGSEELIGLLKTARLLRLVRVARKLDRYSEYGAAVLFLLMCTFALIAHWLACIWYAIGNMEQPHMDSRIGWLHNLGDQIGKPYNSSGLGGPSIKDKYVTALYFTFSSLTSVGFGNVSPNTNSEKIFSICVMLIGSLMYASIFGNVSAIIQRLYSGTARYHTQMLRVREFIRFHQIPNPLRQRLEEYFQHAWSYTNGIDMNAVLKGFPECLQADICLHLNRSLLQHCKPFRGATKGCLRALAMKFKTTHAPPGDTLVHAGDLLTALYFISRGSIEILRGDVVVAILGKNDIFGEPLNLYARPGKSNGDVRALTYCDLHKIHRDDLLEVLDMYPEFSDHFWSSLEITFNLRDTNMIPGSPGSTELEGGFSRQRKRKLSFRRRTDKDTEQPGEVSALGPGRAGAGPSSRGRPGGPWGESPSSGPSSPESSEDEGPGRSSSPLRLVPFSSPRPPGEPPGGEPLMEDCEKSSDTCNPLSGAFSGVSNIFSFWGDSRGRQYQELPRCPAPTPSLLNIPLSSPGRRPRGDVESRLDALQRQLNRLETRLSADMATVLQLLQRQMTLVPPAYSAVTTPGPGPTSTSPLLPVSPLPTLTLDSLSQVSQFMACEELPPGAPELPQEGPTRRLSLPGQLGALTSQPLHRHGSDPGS

molecule.smiles | system | IC50
C[C@H](Nc1nc(N)nc(N)c1Cl)c1nc2c(Cl)cc(F)cc2c(=O)n1-c1cc[nH]n1 | Voltage-gated inwardly rectifying potassium channel KCNH2 (Homo sapiens, UniProt Q12809) | > 25 µM

----------
experimental.protocol: Apparent terminal half life in Sprague-Dawley rat plasma at 1 mg/kg, iv administered via infusion over 30 mins measured over 24 hrs by LC/MS/MS analysis
Type: ADME, organism-based
condition.context: read-out: betat1/2(app) (converted)

molecule.smiles | half-life / h
C[C@H](Nc1nc(N)nc(N)c1Cl)c1nc2c(Cl)cc(F)cc2c(=O)n1-c1cc[nH]n1 | 2.69

----------
experimental.protocol: Apparent terminal half life in cynomolgus monkey plasma at 1 mg/kg, iv administered via infusion over 30 mins measured over 24 hrs by LC/MS/MS analysis
Type: ADME, organism-based, Macaca fascicularis
condition.context: read-out: betat1/2(app) (converted)
experimental.readout: half-life

molecule.smiles | value
C[C@H](Nc1nc(N)nc(N)c1Cl)c1nc2c(Cl)cc(F)cc2c(=O)n1-c1cc[nH]n1 | 4.96 h

----------
experimental.protocol: Oral bioavailability in Beagle dog plasma at 5 mg/kg administered via gavage by LC/MS/MS analysis
Format: ADME, organism-based, Canis lupus familiaris

molecule.smiles | bioavailability [%]
C[C@H](Nc1nc(N)nc(N)c1Cl)c1nc2c(Cl)cc(F)cc2c(=O)n1-c1cc[nH]n1 | 90.4

----------
experimental.protocol: Permeability from apical to basolateral side in human Caco2 cells
Format: ADME, cell-based
condition.context: Caco-2, read-out: permeability
experimental.readout: Papp A→B (×10⁻⁶ cm/s)

molecule.smiles | experimental.readout | unit.tag | value
N#Cc1c(N)nc(N)nc1N[C@H](c1nc2c(Cl)cc(F)cc2c(=O)n1-c1cc[nH]n1)C1CC1 | Papp A→B | ×10⁻⁶ cm/s | 1.5
Nc1nc(N)c(Cl)c(N[C@H](c2nc3cccc(Cl)c3c(=O)n2-c2cc[nH]n2)C2CC2)n1 | Papp A→B | ×10⁻⁶ cm/s | 2.2
C[C@H](Nc1nc(N)nc(N)c1Cl)c1nc2cccc(Cl)c2c(=O)n1-c1cc[nH]n1 | Papp A→B | ×10⁻⁶ cm/s | 1.1
C[C@H](Nc1nc(N)nc(N)c1Cl)c1nc2c(Cl)cc(F)cc2c(=O)n1-c1cc[nH]n1 | Papp A→B | ×10⁻⁶ cm/s | 5.7
